Recorded values, source paper PMC7480105.

System: TfnR uptake via CME in ARPE/HPV cells
assay-text: TfnR uptake (in-cell ELISA) after peptide preincubation
Format: cell-based
experimental-context: 60-min preincubation with peptide at 37°C, concentration curves, n = 4 replicates (Fig. 7 F), read-out: IC50 for inhibition of TfnR uptake
pIC50: −log10 of the molar value. No end group written: not given here.
assay-readout: pIC50

1. YGRKKRRQRRRKTLQIFKSKI [Cbox2] :: < 4.00
2. YGRKKRRQRRRKAGKTLQIFN [Cbox1] :: ~4.22
3. YGRKKRRQRRRLAGCQIINYR [Wbox1] :: ~5.52
4. YGRKKRRQRRRGFSCQIIGIS [Wbox2] :: ~5.52
